# system: MMP-1 (HFC; human fibroblast collagenase) (Homo sapiens, UniProt P03956)
# Sequence (P03956 100-469): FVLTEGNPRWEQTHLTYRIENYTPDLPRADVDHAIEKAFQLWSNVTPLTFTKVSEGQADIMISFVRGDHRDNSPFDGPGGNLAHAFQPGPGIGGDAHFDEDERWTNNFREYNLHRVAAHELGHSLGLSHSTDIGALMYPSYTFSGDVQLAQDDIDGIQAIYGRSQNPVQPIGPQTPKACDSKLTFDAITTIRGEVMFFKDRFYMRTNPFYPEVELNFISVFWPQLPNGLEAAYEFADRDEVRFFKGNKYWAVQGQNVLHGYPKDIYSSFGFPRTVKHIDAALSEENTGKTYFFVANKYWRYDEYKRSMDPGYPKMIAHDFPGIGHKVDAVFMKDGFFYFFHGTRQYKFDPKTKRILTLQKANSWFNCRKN
# runDescription: Enzyme kinetic assay, inhibition of MMP-1
# assaySetup: read-out: Ki (value in parentheses), HFC MMP-1
Each item that follows carries a reported pKi.
Quick note: pKi values are minus log10 of concentrations in mol/L.

In the examples that follow, each entry is paired with its recorded pKi.
# molecule, system, observed
records = [
    ("NC(=O)N1C[C@H](NS(=O)(=O)c2ccc(Oc3ccccc3)cc2)[C@@H](S)C1 (racemic)", "MMP-1 (HFC; human fibroblast collagenase) (Homo sapiens, UniProt P03956)", 5.39),
    ("CN([C@H]1CN(C(N)=O)C[C@@H]1S)S(=O)(=O)c1ccc(Oc2ccccc2)cc1 (racemic)", "MMP-1 (HFC; human fibroblast collagenase) (Homo sapiens, UniProt P03956)", 6.07),
]

Let's switch to this molecule now.
# lookup: pKi of O=C(NCCN1C(=O)c2ccccc2C1=O)N1C[C@H](NS(=O)(=O)c2ccc(Oc3ccccc3)cc2)[C@@H](S)C1 (racemic) 5.55

---

Reported pKi values are given for each entry in this list.
# system: MMP-12 (cdMET; catalytic domain of MMP-12/metalloelastase) (Homo sapiens, UniProt P39900)
# Construct: catalytic domain of MMP-12/metalloelastase (cdMET)
# Sequence (P39900 106-263 limits assumed, species assumed): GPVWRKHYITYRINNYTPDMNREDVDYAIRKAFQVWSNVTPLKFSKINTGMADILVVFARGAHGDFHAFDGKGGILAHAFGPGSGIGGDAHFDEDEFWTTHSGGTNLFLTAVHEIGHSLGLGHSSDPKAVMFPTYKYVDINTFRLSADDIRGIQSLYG
# runDescription: Enzyme kinetic assay, inhibition of MMP-12
# assaySetup: read-out: Ki (value in parentheses), cdMET MMP-12
Where a name gives a salt, the structure may show the parent alone.
Formally, pKi is defined as -log10 of the concentration c, with c in mol/L.

# compound, measurementType, observed
rows = [
    ("O=C(OCc1ccccc1)N1C[C@H](NS(=O)(=O)c2ccc(-c3ccccc3)cc2)[C@@H](S)C1 (racemic)", "pKi", 6.15),
    ("NCCCCCC(=O)N1C[C@H](NS(=O)(=O)c2ccc(Oc3ccccc3)cc2)[C@@H](S)C1 (racemic) [Example 7, Hydrochloride]", "pKi", 8.32),
    ("O=C(NCCN1C(=O)c2ccccc2C1=O)N1C[C@H](NS(=O)(=O)c2ccc(Oc3ccccc3)cc2)[C@@H](S)C1 (racemic)", "pKi", 8.70),
    ("CC(=O)NCCCCCC(=O)N1C[C@H](NS(=O)(=O)c2ccc(-c3ccccc3)cc2)[C@@H](S)C1 (racemic)", "pKi", 7.54),
    ("O=S(=O)(N[C@H]1CNC[C@@H]1S)c1ccc(Oc2ccccc2)cc1 (racemic) [Example 3, Hydrochloride]", "pKi", 7.42),
]

Record lookup: for MMP-12 (cdMET; catalytic domain of MMP-12/metalloelastase) (Homo sapiens, UniProt P39900), what pKi belongs to O=C(OCc1ccccc1)N1C[C@H](NS(=O)(=O)c2ccc(Oc3ccccc3)cc2)[C@@H](S)C1 (racemic) ? 6.14

For MMP-12 (cdMET; catalytic domain of MMP-12/metalloelastase) (Homo sapiens, UniProt P39900), provide pKi of CC(=O)NCCCCCC(=O)N1C[C@H](NS(=O)(=O)c2ccc(Oc3ccccc3)cc2)[C@@H](S)C1 (racemic) please. 8.70

Lab note: need pKi with MMP-12 (cdMET; catalytic domain of MMP-12/metalloelastase) (Homo sapiens, UniProt P39900) for entry CN([C@H]1CN(C(N)=O)C[C@@H]1S)S(=O)(=O)c1ccc(Oc2ccccc2)cc1 (racemic) , please look it up. 6.80

So what pKi did NC(=O)N1C[C@H](NS(=O)(=O)c2ccc(Oc3ccccc3)cc2)[C@@H](S)C1 (racemic) get with MMP-12 (cdMET; catalytic domain of MMP-12/metalloelastase) (Homo sapiens, UniProt P39900)? 6.60
